test system: Colo205 human colon adenocarcinoma cell line (doxorubicin-sensitive); experiment: MTT assay, cytotoxicity at pH 6 and 7; type: cell-based; conditions: Colo205; pH 7; 72 h incubation; read-out: IC50
pIC50: −log10 of the molar value.
Provide the recorded pIC50 for the entries that follow.

Could you share which pIC50 value was measured for CC1=C(C)C(C)C(C)=C1C.Cn1ccnc1.[Rh+3].c1cnc2c(c1)ccc1cccnc12 [[RhCp*(phen)(mim)]^2+] ? < 4.00

Also CC1=C(C)C(C)C(C)=C1C.[Rh+3].c1ccncc1.c1cnc2c(c1)ccc1cccnc12 [[RhCp*(phen)(Py)]^2+] , if possible. < 4.00

Also Cc1c(C)c(C)[c-](C)c1C.[Cl-].[Cl-].[Rh+3].c1cnc2c(c1)ccc1cccnc12 [[RhCp*(phen)Cl]Cl] , if possible. < 4.00
